system tested: UniProt P08659
Sequence (P08659 whole entry): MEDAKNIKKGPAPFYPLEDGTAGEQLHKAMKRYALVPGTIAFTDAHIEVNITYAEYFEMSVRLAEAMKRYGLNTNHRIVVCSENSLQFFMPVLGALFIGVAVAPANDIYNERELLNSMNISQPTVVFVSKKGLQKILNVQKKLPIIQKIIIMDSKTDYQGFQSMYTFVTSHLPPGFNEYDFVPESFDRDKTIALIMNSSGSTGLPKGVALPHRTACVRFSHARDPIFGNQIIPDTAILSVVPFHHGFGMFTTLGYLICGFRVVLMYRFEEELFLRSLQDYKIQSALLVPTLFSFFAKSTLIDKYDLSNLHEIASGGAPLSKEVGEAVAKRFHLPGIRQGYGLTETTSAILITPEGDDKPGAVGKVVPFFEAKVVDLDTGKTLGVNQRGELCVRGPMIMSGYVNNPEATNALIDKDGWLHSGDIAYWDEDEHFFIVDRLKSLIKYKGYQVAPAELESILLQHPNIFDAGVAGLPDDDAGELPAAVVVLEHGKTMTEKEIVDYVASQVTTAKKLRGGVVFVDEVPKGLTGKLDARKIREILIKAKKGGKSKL
assay method text: inhibition of purified Photinus pyralis luciferase – biochemical, luminescence, dose response (AID 1891)
Active and inactive are the calls of the source.
Catalogue of EC50 readings, one per entry.

Below are worked cases with known answers.
compound	EC50
COc1ccc(CCN2CC(C(=O)NCCc3ccc(C(F)(F)F)cc3)CCC2=O)cc1 (centres undefined)	> 112 µM (not active)
Cc1ccc(/C(O)=C/C=N/c2ccccn2)cc1	1.64 µM (active)
Cn1c(=O)c2c(nc(NCc3ccco3)n2C/C=C/c2ccccc2)n(C)c1=O	> 112 µM (not active)

Could you now look at the following compound, please?
Input line: What value of measured EC50 is listed for O=C(Nc1ccccn1)c1c(O)c2cccc3c2n(c1=O)CCC3 ?
Output line: > 112 µM (not active)

---

assay method text: viability loss in THP-1 monocytes – THP-1 cells, cytotoxicity control for Vif-APOBEC3G degradation inhibitor project, dose response (AID 1117359)
Assay type: functional
study conditions: Human immunodeficiency virus 1, THP-1
The source made the active and inactive calls.
readout kind: CC50

Below are worked cases with known answers.
mol	reported value
CC(C)Nc1ccc(Nc2ccccc2)cc1	26.2 µM (active)
C[C@H]1c2cccc(O)c2C(=O)C2=C(O)[C@]3(O)C(=O)C(C(N)=O)=C(O)[C@@H](N(C)C)[C@@H]3[C@@H](O)[C@@H]21	36 µM (active)
CCc1ccc(C(=O)Nc2cccnc2Oc2ccc(Cl)cc2)cc1	18.4 µM (active)

Could you now look at the following compound, please?
Input line: What value of measured CC50 is listed for COc1ccccc1CNC(=O)COC(=O)c1cc(-c2ccco2)nc2ccccc12 ?
Output line: > 40 µM (active)

---

system tested: Cytochrome P450 2C19 (Homo sapiens)
Sequence (P33261 whole entry): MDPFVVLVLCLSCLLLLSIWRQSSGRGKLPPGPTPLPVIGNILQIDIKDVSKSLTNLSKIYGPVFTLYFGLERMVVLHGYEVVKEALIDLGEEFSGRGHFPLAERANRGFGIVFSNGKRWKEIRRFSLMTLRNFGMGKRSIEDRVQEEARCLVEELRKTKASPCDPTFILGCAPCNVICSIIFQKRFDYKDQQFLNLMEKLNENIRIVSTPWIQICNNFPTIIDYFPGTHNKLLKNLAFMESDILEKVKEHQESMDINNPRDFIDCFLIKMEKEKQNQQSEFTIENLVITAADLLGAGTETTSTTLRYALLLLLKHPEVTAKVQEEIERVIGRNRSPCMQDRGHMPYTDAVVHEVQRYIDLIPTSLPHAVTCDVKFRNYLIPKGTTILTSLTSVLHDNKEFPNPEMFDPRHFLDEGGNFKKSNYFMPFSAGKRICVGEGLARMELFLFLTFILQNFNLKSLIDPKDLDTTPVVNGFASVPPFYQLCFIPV
assay method text: Cytochrome panel assay with activity outcomes. Panel member name: p450-cyp2c19 Compounds with AC50 equal or less than 10 uM are considered active
Type: functional
study conditions: read-out: AC50
readout kind: AC50

Below are worked cases with known answers.
compound	AC50
CCc1ccc(OCCCC(=O)Nc2ccc(N3CCCCC3)cc2)cc1	10 µM (inconclusive)
c1cncc(-c2nc(NCc3cccs3)c3ccccc3n2)c1	5.01 µM (inconclusive)
COCC(=O)Nc1ccc(-c2cn3cccnc3n2)cc1	3.98 µM (inconclusive)
COCCn1c(=O)c(-c2ccc(Cl)cc2)nc2cnc(Oc3ccccc3)nc21	39.8 µM (inconclusive)
O[C@@H]1[C@H](O)[C@H]2[C@@H](O)CCN2C[C@@H]1O	39.8 µM (inconclusive)
CCCCCCCC/C=C\CCCCCCCC(N)=O [OLEAMIDE]	31.6 µM (inconclusive)

Could you now look at the following compound, please?
Input line: What value of measured AC50 is listed for O=C(CCCN1CCC2(CC1)C(=O)N(Cc1cccc(F)c1)CN2c1ccccc1)c1ccc(F)cc1 ?
Output line: 7.94 µM (inconclusive)

---

system tested: Polyadenylate-binding protein 1 (Homo sapiens, UniProt P11940)
Sequence (P11940 whole entry, the tested form may be a part): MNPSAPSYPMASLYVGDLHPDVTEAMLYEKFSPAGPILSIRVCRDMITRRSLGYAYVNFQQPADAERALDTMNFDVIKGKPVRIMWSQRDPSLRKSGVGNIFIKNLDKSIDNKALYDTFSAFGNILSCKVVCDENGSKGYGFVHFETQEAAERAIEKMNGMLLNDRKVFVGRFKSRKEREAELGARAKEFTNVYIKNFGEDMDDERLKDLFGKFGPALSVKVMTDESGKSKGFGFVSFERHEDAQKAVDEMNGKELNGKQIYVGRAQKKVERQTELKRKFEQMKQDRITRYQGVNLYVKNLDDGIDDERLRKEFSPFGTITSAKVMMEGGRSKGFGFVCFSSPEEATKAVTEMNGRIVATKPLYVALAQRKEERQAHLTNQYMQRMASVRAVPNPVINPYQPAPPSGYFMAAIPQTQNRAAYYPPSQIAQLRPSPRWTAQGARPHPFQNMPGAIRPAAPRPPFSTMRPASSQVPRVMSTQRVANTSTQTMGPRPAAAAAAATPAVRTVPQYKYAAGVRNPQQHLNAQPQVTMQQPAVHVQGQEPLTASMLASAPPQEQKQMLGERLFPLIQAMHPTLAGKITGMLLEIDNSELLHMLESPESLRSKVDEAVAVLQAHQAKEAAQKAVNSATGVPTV
assay method text: MLLE domain peptide-binding blockers, IC50 – biochemical, fluorescence polarization, FITC-PAM2 peptide, dose response (AID 602259)
Type: functional
study conditions: read-out: IC50_Mean
The source made the active and inactive calls.
readout kind: IC50

compound	IC50
COc1ccc(C2C(C(=O)c3ccco3)=C(O)C(=O)N2c2nnc(C)s2)cc1OC (centres undefined)	50.4 µM (inactive)
CCOc1ccccc1N=C(S)NNS(=O)(=O)c1c(C)cc(C)cc1C	> 66 µM (inactive)
O=C1c2ccccc2-c2cc3ccccc3cc21	> 66 µM (inactive)
O=C(NC(=S)Nc1ccccc1)c1cncc(C#Cc2ccccc2)c1	> 66 µM (inactive)
O=C(Cc1ccc(Cl)cc1)NC(=S)Nc1ccccc1O	> 66 µM (inactive)

Input line: What value of measured IC50 is listed for COCCCN=C(S)N(CCO)Cc1cc2cc3c(cc2nc1O)OCCO3 ?
Output line: > 66 µM (inactive)

Input line: Thanks! And O=C(O)c1ccc(Cn2cnc3cccnc32)cc1 ?
Output line: 55.8 µM (inactive)

Input line: Thanks! And O=C(NC(=S)Nc1ccc2oc(=O)ccc2c1)c1ccco1 ?
Output line: > 66 µM (inactive)

Input line: Thanks! And CCOC(=O)COc1ccc2c(C#N)c3ccccn3c2c1 ?
Output line: > 66 µM (inactive)

The measurements presented in this section are drawn from ChEMBL document CHEMBL1201862.
